# Run description: Clearance in iv dosed dog
# Assay type: ADME, organism-based, Canis lupus familiaris
# Assay context: in vivo
Property measured: clearance
Reply with a number, then the unit it belongs to.

Determine its reported clearance: `CNCCOc1ccccc1C(C)(C)Nc1nccn(-c2cc(C(=O)NC3CC3)ccc2C)c1=O`
16.5 mL/min/kg

----------
# Run description: Oral bioavailability in rat
# Format: ADME, organism-based
# Assay context: in vivo
Property measured: bioavailability (%)
Express it in %; write the number only.

Determine its reported bioavailability: `CNCCOc1ccccc1C(C)(C)Nc1nccn(-c2cc(C(=O)NC3CC3)ccc2C)c1=O`
6

----------
# Run description: Acid dissociation constant, pKa of the compound
# Type: physicochemical
Would you kindly list pKa for each of these compounds?
Just the number, please, no unit after it.

Determine its reported pKa: `CNCCOc1ccccc1C(C)(C)Nc1nccn(-c2cc(C(=O)NC3CC3)ccc2C)c1=O`
9.1

Determine its reported pKa: `Cc1ccc(C(=O)NC2CC2)cc1-n1ccnc(N[C@@H](c2ccccc2)[C@@H](C)CN2CCCCC2)c1=O`
8.4

----------
# Run description: Aqueous solubility of the compound at pH 7.4
# Type: physicochemical
# Assay context: buffer, read-out: solubility
Would you kindly list log10(solubility) for each of these compounds?
Plainly stated, the numbers are log10 of solubility given in µM.

Determine its reported log10(solubility): `Cc1ccc(C(=O)NC2CC2)cc1-n1ccnc(N[C@@H](c2ccccc2)[C@@H](C)CO)c1=O`
2.94

Determine its reported log10(solubility): Cc1ccc(C(=O)NC2CC2)cc1-n1ccnc(N2CCCC2c2ccccc2)c1=O (racemic)
2.54

Determine its reported log10(solubility): `Cc1ccc(C(=O)NC2CC2)cc1-n1ccnc(N[C@@H]2CCCc3ccccc32)c1=O`
2.23

Determine its reported log10(solubility): `COc1cccc(CNc2nccn(-c3cc(C(=O)NC4CC4)ccc3C)c2=O)c1`
2.55

Determine its reported log10(solubility): `Cc1ccc(C(=O)NC2CC2)cc1-n1ccnc(N(C)Cc2ccccc2)c1=O`
1.73

Determine its reported log10(solubility): `Cc1ccc(C(=O)NC2CC2)cc1-n1ccnc(N[C@@H](c2ccccc2)[C@@H](C)CN2CCCCC2)c1=O`
2.96

Determine its reported log10(solubility): `Cc1ccc(C(=O)NC2CC2)cc1-n1ccnc(N[C@@H](c2ccccc2)[C@@H](C)CN2CCNCC2)c1=O`
2.80

Determine its reported log10(solubility): `Cc1ccc(C(=O)NC2CC2)cc1-n1ccnc(NCc2ccccc2)c1=O`
1.36

----------
# Run description: Volume of distribution at steady state in iv dosed dog
# Type: ADME, organism-based, Canis lupus familiaris
# Assay context: in vivo, read-out: Vdss
Property measured: Vd

Determine its reported Vd: `CNCCOc1ccccc1C(C)(C)Nc1nccn(-c2cc(C(=O)NC3CC3)ccc2C)c1=O`
6.4 L/kg

----------
Would you kindly list half-life for each of these molecules?
# Run description: Half life in iv dosed rat
# Assay type: ADME, organism-based
# Assay context: in vivo
Express it in h; write the number only.

Determine its reported half-life: `Cc1ccc(C(=O)NC2CC2)cc1-n1ccnc(N[C@@H](c2ccccc2)[C@@H](C)CN2CCCCC2)c1=O`
7.8

Determine its reported half-life: `Cc1ccc(C(=O)NC2CC2)cc1-n1ccnc(NC(C)(C)c2ccccc2OCCN2CCCC2)c1=O`
8

Determine its reported half-life: `CNCCOc1ccccc1C(C)(C)Nc1nccn(-c2cc(C(=O)NC3CC3)ccc2C)c1=O`
13

Determine its reported half-life: Cc1ccc(C(=O)NC2CC2)cc1-n1cnc2ccc(N3CCN(C)CC3)cc2c1=O [AZD-6703]
0.7
